Quick reference: IC50 of the listed items.
Assay: Antiproliferative activity against human alpha-2 cells after 48 hrs by MTT assay
Type: functional, cell-based
The figure you give is taken to be in µM; do not add the unit.

Sample records with IC50:
| querySmiles | units | IC50 |
| --- | --- | --- |
| CC(C)(O)CCC[C@@](C)(O)[C@H]1CC[C@]2(C)[C@@H]1[C@H](OC(=O)[C@H](Cc1ccc(O)cc1)NC(=O)OC(C)(C)C)C[C@@H]1[C@@]3(C)CC[C@H](O)C(C)(C)[C@@H]3CC[C@]12C | µM | 84 |
| C[C@H](NC(=O)OC(C)(C)C)C(=O)O[C@H]1CC[C@]2(C)[C@H]3C[C@@H](O)[C@@H]4[C@@H]([C@](C)(O)CCCC(C)(C)O)CC[C@@]4(C)[C@]3(C)CC[C@H]2C1(C)C | µM | 24 |
| CC(C)(O)CCC[C@@](C)(O)[C@H]1CC[C@]2(C)[C@@H]1[C@H](O)C[C@@H]1[C@@]3(C)CC[C@H](OC(=O)[C@H](Cc4cnc[nH]4)NC(=O)OC(C)(C)C)C(C)(C)[C@@H]3CC[C@]12C | µM | 20 |

Then this compound:
(Q) Please report IC50 for the following compound: CC(C)(O)CCC[C@@](C)(O)[C@H]1CC[C@]2(C)[C@@H]1[C@H](O)C[C@@H]1[C@@]3(C)CC[C@H](OC(=O)[C@@H](N)CCCNC(=N)N)C(C)(C)[C@@H]3CC[C@]12C
(A) 7.1

Cited source for all entries: ChEMBL document CHEMBL3769368
